- target or system: Human Fc (human)
- protocol description: ELISA; negative control
# reported optical density; entries follow
Please respond with the number in OD and leave the unit unwritten.

// below: answered binders
369_H12 (antibody, V domains shown) VH: EVQLLESGGGLVQPGGSLRLSCAASGFTFSSYSMNWVRQAPGKGLEWVAGINYNGGYKSYADSVKGRFTISRDNSKNTLYLQMNSLRAEDTAVYYCARGATWHDTHLDYWGQGTLVTVSS VL: DIQMTQSPSSLSASVGDRVTITCRASQSIVTYVNWYQQKPGKAPKLVIYAATSRASGVPSRFSGSGSGTDFTLTISSLQPEDFATYYCQQSYDSPLTFGGGTKVEIK; 0.414
368_G10 (antibody, V domains shown) VH: EVQLLESGGGLVQPGGSLRLSCAASGFTFSSYSMHWVRQAPGKGLEWVSSINYNGGYTSYADSVKGRFTISRDNSKNTLYLQMNSLRAEDTAVYYCARGATWHDTHLDYWGQGTLVTVSS VL: DIQMTQSPSSLSASVGDRVTITCRASQSIVSYVNWYQQKPGKAPKLVIYAATSRASGVPSRFSGSGSGTDFTLTISSLQPEDFATYYCQQSYDTPLTFGGGTKVEIK; 0.356

Read the next record carefully.
Task: optical density lookup needed for 374_D09 (antibody, V domains shown) VH: EVQLLESGGGLVQPGGSLRLSCAASGFTFDSYGMNWVRQAPGKGLEWVANINYNGGYKGYADSVKGRFTISRDNSKNTLYLQMNSLRAEDTAVYYCARGATWHDTHLDYWGQGTLVTVSS VL: DIQMTQSPSSLSASVGDRVTITCRASQSIISYVNWYQQKPGKAPKLLIYAATSLASGVPSRFSGSGSGTDFTLTISSLQPEDFATYYCQQSYDTPLTFGGGTKVEIK , thanks.
Result: 0.171
